B1: MLL5 (parent)
chain: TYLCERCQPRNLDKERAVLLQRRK

- Variants of: B1
- assay-comment: protein stability index of a GFP-peptide fusion (GPS, HEK-293T) (PSI 1-6); higher = more stable;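 further: lentivirally expressed fusions sorted by FACS into six bins by GFP to DsRed ratio, PSI derived from sequencing read proportions per bin multiplied by bin number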
- experimental-setup: c terminus: a fixed tail appended
Label rule met for high-side protein stability index (at or above 2) and rule not met for low-side protein stability index (below it).

// known answers, use as guide
mutation-label | label-class
R10I | rule met
D13Q | rule met
Q8W | rule met
P9V | rule met
A17V | rule met

Check if protein stability index >= 2 (inclusive). Item: Q8V
rule not met

And what about the variant Q21D ?
rule met

Quick one: R6I
rule met

Consider next the variant N11Q in the same way.
rule met

Similarly, V18Q ?
rule met

Try K24G next.
rule not met

Also need L20H , thanks.
rule met
